Source listed as patent US20140178461A1.

# assayConditions: BALB/c nude, mouse, in vivo, inhaled or intranasal
measure: Cmax (µM)
Value expressed in µM; do not type the unit.

Cmax recorded for this molecule, CC1=C(CC(=O)O)c2cc(F)ccc2/C1=C\c1ccc(S(C)(=O)=O)cc1 [Sulindac sulfone 132, sulindac sulfone] , is 10.4

====

// reported AUC in lung for each item listed
# assayConditions: mouse, in vivo, inhaled or intranasal
The answer is to be given in nmol·h/g; state only the numeric part.

Consider the reported AUC in lung for these molecules:
CC1=C(CC(=O)O)c2cc(F)ccc2/C1=C\c1ccc([S+](C)[O-])cc1 (stereo not drawn): 30.1
CSc1ccc(/C=C2/C(C)=C(CC(=O)O)c3cc(F)ccc32)cc1 [Sulindac sulfide 131, sulindac sulfide]: 18.9

Then this molecule:
# AUC in lung of CC1=C(CC(=O)O)c2cc(F)ccc2/C1=C\c1ccc(S(C)(=O)=O)cc1 = 57.5

====

# experimentSummary: in vivo
# assayConditions: mouse, ip, 58 mg/kg
measure: Cmax
Respond with the figure and its unit, in that order.

According to the records, this compound COc1ccc2c(c1)c(CC(=O)O)c(C)n2C(=O)c1ccc(Cl)cc1 [indomethacin 127, indomethacin] displays Cmax of 127 µM
